Test system: SF-268 CNS
Assay method text: NCI tumour cell line growth inhibition, 48 h

- Compound: "c1ccc2c(c1)Sc1ccccc1N2C1CN2CCC1CC2 (stereo not drawn)"
  TGI: "63 µM"
- Compound: "CC(=O)Nc1ccc(-c2csc(Nc3cccc(-c4csc(-c5ccccc5)n4)c3)n2)cc1"
  TGI: "> 50 µM"
- Compound: "Cc1ccc(NC(=O)/C(=N/NC(=O)C[N+](C)(C)C)c2nc3ccccc3[nH]c2=O)cc1"
  TGI: "> 100 µM"
- Compound: "CCN(CC)C1Oc2cc3c(cc2C(c2cccc(OC)c2O)C1C)OCO3 (stereo not drawn)"
  TGI: "> 54 µM"
- Compound: "O=NN1C(c2ccccc2)CCCC1c1ccccc1 (stereo not drawn)"
  TGI: "> 100 µM"
- Compound: "COc1ccc2c(c1)[nH]c(=O)c1c3cc(OC)c(OC)cc3cn21"
  TGI: "1.45 µM"
- Compound: "CCOC(=O)C(NC(=O)CC)(Nc1ccc(S(=O)(=O)Nc2ccc(OC)nn2)cc1)C(F)(F)F (stereo not drawn)"
  TGI: "> 100 µM"
- Compound: "CC(=O)OCC1OC(SC2=NC(=O)/C(=C/c3ccccc3)S2)C(OC(C)=O)C(OC(C)=O)C1OC(C)=O (stereo not drawn)"
  TGI: "52.3 µM"
